Biological target: Nuclear receptor subfamily 1 group I member 3 (Homo sapiens) (UniProt Q14994)
Sequence (Q14994 whole entry, looked up): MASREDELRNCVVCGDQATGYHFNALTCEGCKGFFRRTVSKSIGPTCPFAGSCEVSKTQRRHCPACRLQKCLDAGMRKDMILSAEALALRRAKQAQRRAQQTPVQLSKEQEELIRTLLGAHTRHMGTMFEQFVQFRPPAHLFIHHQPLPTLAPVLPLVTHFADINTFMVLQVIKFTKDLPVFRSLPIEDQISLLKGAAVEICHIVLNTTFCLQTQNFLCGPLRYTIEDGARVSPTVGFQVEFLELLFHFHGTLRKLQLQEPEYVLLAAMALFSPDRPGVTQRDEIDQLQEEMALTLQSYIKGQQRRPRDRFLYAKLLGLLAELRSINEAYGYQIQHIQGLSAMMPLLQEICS
Assay: qHTS assay to identify small molecule agonists of the constitutive androstane receptor (CAR) signaling pathway (AID 1224839);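 note: HepG2 cells stably carrying human CAR and a CYP2B6 luciferase reporter; nearly all actives have a fitted effect of over 15% in size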
Details: HepG2 hCAR CYP2B6-luciferase, agonist mode, 24 h; series mostly up to 92.4 µM
Results filed as inconclusive are left out. Calls of active or inactive are those of the source. Calls come from the whole dose curve; as a rule, active = well fitted activation curve with a large enough effect in the repeat runs; inconclusive = weak or mixed curves; inactive = no such curve, though single readings can be large or run the other way.
measure name: outcome

query: Which outcome is reported for this compound? CCC(C)(C#N)N=NC(C)(C#N)CC (configuration not stated)
result: inactive

query: Now the compound Cc1cc(OC(=O)N(C)C)nn1C(=O)N(C)C
result: inactive

query: Next record, please: COC(=O)c1ccccc1CS(=O)(=O)NC(=O)Nc1nc(OC)cc(OC)n1
result: inactive

query: Proceed to COc1cc(CCN)cc(OC)c1OC
result: inactive

query: Also CCCC(C)(COC(N)=O)COC(N)=O ?
result: inactive

query: Let us now turn to C=CCc1cc(OC)c2c(c1)OCO2
result: inactive

Proceed to the following item.
query: Query (compound): CCCC[N+](=O)[O-] ; field requested: outcome
result: inactive
